Assay read-out IC50; system under study: TYK2 (Homo sapiens (Human)).
Sequence (P29597 whole entry, species assumed): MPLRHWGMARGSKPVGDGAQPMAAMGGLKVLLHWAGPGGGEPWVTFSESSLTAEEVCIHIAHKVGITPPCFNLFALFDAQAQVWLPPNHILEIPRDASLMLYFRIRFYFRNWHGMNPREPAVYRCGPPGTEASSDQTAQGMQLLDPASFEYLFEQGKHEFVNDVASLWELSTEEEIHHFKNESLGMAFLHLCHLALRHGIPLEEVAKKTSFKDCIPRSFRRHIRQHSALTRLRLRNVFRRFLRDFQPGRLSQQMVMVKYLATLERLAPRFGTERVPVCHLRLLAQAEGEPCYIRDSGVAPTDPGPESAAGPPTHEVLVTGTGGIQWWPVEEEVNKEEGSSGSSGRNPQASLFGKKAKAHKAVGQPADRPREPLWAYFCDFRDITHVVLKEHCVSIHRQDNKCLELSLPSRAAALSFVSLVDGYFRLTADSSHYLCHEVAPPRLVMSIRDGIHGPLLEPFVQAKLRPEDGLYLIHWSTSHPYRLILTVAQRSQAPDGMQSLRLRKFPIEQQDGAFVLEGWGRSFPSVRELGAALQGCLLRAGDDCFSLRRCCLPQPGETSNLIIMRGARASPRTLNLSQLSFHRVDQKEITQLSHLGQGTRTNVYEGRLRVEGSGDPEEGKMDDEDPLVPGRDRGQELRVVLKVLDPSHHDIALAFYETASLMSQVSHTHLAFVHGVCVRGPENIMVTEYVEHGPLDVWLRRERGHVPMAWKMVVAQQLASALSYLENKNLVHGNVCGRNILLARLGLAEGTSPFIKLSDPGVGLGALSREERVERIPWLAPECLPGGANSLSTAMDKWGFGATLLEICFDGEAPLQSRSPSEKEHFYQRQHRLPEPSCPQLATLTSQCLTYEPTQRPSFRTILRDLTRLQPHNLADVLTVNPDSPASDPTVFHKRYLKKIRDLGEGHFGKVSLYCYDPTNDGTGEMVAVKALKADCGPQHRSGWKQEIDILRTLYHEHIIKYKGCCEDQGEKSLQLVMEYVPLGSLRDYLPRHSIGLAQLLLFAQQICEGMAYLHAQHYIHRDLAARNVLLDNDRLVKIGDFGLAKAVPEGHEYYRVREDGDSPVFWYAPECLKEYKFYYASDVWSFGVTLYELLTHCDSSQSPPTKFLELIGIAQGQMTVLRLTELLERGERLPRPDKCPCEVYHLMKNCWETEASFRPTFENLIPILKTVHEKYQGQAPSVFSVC
Measure: IC50

[[record]]
compound = "Cc1cnc(Nc2ccc(C3(O)COC3)cc2)nc1N1CC(CC#N)(N2CCN(C)CC2)C1 [E79a]"
measure = "IC50"
reading = "< 10 nM"

[[record]]
compound = "Cc1cc(Nc2ncc(C)c(N3CC(CC#N)(N4CCN(C)[C@@H](C)C4)C3)n2)sn1 [E52A]"
measure = "IC50"
reading = "< 10 nM"

[[record]]
compound = "Cc1cc(Nc2ncc(C)c(N3CC(CC#N)(OC4CC5(C4)CC5(F)F)C3)n2)sn1 (stereo not shown) [E106a]"
measure = "IC50"
reading = "< 10 nM"

[[record]]
compound = "Cc1cnc(Nc2ccc3c(c2)CN(C)C3)nc1N1CC(CC(F)F)(C2CC2)C1 [E216-A]"
measure = "IC50"
reading = "< 10 nM"


====

Assay read-out pIC50; system under study: TYK2 (Homo sapiens (Human)).
pIC50: −log10 of the molar value.
Measure: pIC50

[[record]]
molecule = "Cc1cnc(Nc2cnn(C)c2)nc1N1CC(CC#N)(N2CCC3(CC2)CC3(F)F)C1"
reading = "> 8.00"

[[record]]
molecule = "Cc1cc(Nc2ncc(C)c(N3CC(CC#N)(N4CCN5C[C@@H](F)C[C@@H]5C4)C3)n2)sn1 [E70a]"
reading = "> 8.00"

[[record]]
molecule = "Cc1cc(Nc2ncc(C)c(N3C4CC3CN(CC#N)C4)n2)sn1"
reading = "> 7.30"

[[record]]
molecule = "CCOC(=O)CC1(N2CCCCC2)CN(c2nc(Nc3cc(C)ns3)ncc2C)C1 [E65a]"
reading = "> 7.30"

[[record]]
molecule = "Cc1cnc(Nc2ccc(N3CCOCC3)cc2)nc1N1CC(C)(NC(=O)c2cccc(F)c2)C1"
reading = "> 7.30"

[[record]]
molecule = "Cc1cc(Nc2ncc(C)c(N3CC(CC#N)(NCc4ccc(F)cc4F)C3)n2)sn1"
reading = "> 8.00"

[[record]]
molecule = "Cc1cc(Nc2nccc(N3CC(CC#N)(N4CCN5CC6(CC6)C[C@H]5C4)C3)n2)sn1 [E82a]"
reading = "> 7.70"

[[record]]
molecule = "Cc1cc(Nc2ncc(C)c(N3CC(CC#N)(N4CCOCC4)C3)n2)sn1"
reading = "> 8.00"

[[record]]
molecule = "Cc1cc(Nc2ncc(C)c(N3CC(CC#N)(NC(=O)C4CCCC(F)(F)C4)C3)n2)sn1 (stereo not drawn)"
reading = "> 8.00"


====

- System name: TYK2 (Homo sapiens (Human))
Measure: IC50

[[record]]
compound = "Cc1cc(Nc2ncc(C)c(N3CC(CC#N)(N4CCN5CCC5C4)C3)n2)sn1 (centres unmarked) [E89a]"
reading = "< 50 nM"

[[record]]
compound = "Cc1cc(Nc2ncc(C)c(N3CC(CC#N)(NC(=O)C4CCCC4)C3)n2)sn1"
reading = "< 20 nM"

[[record]]
compound = "Cc1cnc(Nc2cccnc2)nc1N1CC(CC#N)(N2CCN(C)CC2)C1"
reading = "< 20 nM"

[[record]]
compound = "Cc1cc(Nc2ncc(C)c(N3CC(N)(CC#N)C3)n2)sn1"
reading = "< 50 nM"

[[record]]
compound = "Cc1cc(Nc2ncc(C)c(N3CC(CC(F)F)C3)n2)sn1"
reading = "< 10 nM"

[[record]]
compound = "Cc1cc(Nc2ncc(C)c(N3CC(CC#N)(NC(=O)c4ccc(F)c(F)c4)C3)n2)sn1"
reading = "< 50 nM"

[[record]]
compound = "COC(=O)CC1(N2CCN3C[C@H](F)C[C@H]3C2)CN(c2nc(Nc3cnn(C)c3)ncc2C)C1 [E166a]"
reading = "< 200 nM"

[[record]]
compound = "CCS(=O)(=O)NC1(CC#N)CN(c2nc(N(c3cc(C)ns3)S(=O)(=O)CC)ncc2C)C1"
reading = "< 1000 nM"

[[record]]
compound = "Cc1cc(Nc2ncc(C)c(N3CC(CC#N)(N4CCN5CCC[C@]5(C)C4)C3)n2)sn1 [E83a]"
reading = "< 50 nM"

[[record]]
compound = "Cc1cc(Nc2ncc(C3CC3)c(N3CC(CC#N)(N4CCN5C[C@H](F)C[C@H]5C4)C3)n2)sn1 [E102a]"
reading = "< 10 nM"

[[record]]
compound = "Cc1cc(Nc2ncc(C)c(N3CC(CC#N)(N4CCC5(CC4)CN(C)C5)C3)n2)sn1"
reading = "< 50 nM"

